test system: 922993-354-T-J3-PDC complex spheroids, viability, % test/control; assay: Anticancer human tumor 922993-354-T-J3-PDC patient-derived endometrial carcinoma cell line growth inhibition [CLK]; details: second compound 1 µM; first compound 3.16 µM; active = viability on the fitted dose curve at most 10% of control; inactive = the rest;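 note: spheroids exposed to the agents for 7 days before readout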
Write down one outcome, taken from y = active, n = inactive

Hi, do you know how C=C(F)C(=O)N1CCN(c2nc(OCC3CCCN3C)nc3c2CCN(c2cccc4cccc(Cl)c24)C3)CC1CC#N (stereo not drawn) + CN1CCN(c2cc(C(=O)Nc3cc4cc(-c5cnn(C)c5)ccc4cn3)ccn2)CC1 came out in this test? y

What classification did COc1cccc2c1C(=O)c1c(O)c3c(c(O)c1C2=O)CC(O)(C(=O)CO)CC3OC1CC(N)C(O)C(C)O1 (stereo not drawn) + CNC(=O)c1ccc(Nc2nc(OC3CCCC3)c3c(-c4ccc5nc(C)oc5c4)c[nH]c3n2)c(OC)c1 end up with in this test? n

Give the logged outcome of this assay for the following compound: CCCS(=O)(=O)Nc1ccc(F)c(C(=O)c2c[nH]c3ncc(-c4ccc(Cl)cc4)cc23)c1F + CN1CCN(c2cc(C(=O)Nc3cc4cc(-c5cnn(C)c5)ccc4cn3)ccn2)CC1 y

Look up the recorded call for C=CC(=O)N1CCN(c2nc(=O)n(-c3c(C)ccnc3C(C)C)c3nc(-c4c(O)cccc4F)c(F)cc23)C(C)C1 (stereo not drawn) + CNC(=O)c1ccc(Nc2nc(OC3CCCC3)c3c(-c4ccc5nc(C)oc5c4)c[nH]c3n2)c(OC)c1 in this test. n

Identify the outcome logged in this assay for the compound shown: COc1ccc([C@@H](O)c2cc(-c3ncnc4cc(N5CCOCC5)ccc34)c(F)cc2Cl)nn1 + CN1CCN(c2cc(C(=O)Nc3cc4cc(-c5cnn(C)c5)ccc4cn3)ccn2)CC1 y

Any idea what this test logged for CC(Nc1ccc2c(c1)OCCn1cc(N3C(=O)OCC3C(F)F)nc1-2)C(N)=O (stereo not drawn) + CN1CCN(c2cc(C(=O)Nc3cc4cc(-c5cnn(C)c5)ccc4cn3)ccn2)CC1 ? y

Name the outcome recorded for Nc1ccccc1NC(=O)c1ccc(CNC(=O)OCc2cccnc2)cc1 + CNC(=O)c1ccc(Nc2nc(OC3CCCC3)c3c(-c4ccc5nc(C)oc5c4)c[nH]c3n2)c(OC)c1 in the assay. n

Name the outcome recorded for CC1COCCN1c1cc(C2(S(C)(=N)=O)CC2)nc(-c2ccnc3[nH]ccc23)n1 (stereo not drawn) + CN1CCN(c2cc(C(=O)Nc3cc4cc(-c5cnn(C)c5)ccc4cn3)ccn2)CC1 in the assay. y

What is the recorded call for this compound in the test? COc1cccc2c1C(=O)c1c(O)c3c(c(O)c1C2=O)CC(O)(C(=O)CO)CC3OC1CC(N)C(O)C(C)O1 (stereo not drawn) + CN1CCN(c2cc(C(=O)Nc3cc4cc(-c5cnn(C)c5)ccc4cn3)ccn2)CC1 y

Hello, I am checking results. What call was entered for Nc1ccccc1NC(=O)c1ccc(CNC(=O)OCc2cccnc2)cc1 + CN1CCN(c2cc(C(=O)Nc3cc4cc(-c5cnn(C)c5)ccc4cn3)ccn2)CC1 ? y

Any idea what this test logged for O=C(c1cc(Cc2n[nH]c(=O)c3ccccc23)ccc1F)N1CCN(C(=O)C2CC2)CC1 + CNC(=O)c1ccc(Nc2nc(OC3CCCC3)c3c(-c4ccc5nc(C)oc5c4)c[nH]c3n2)c(OC)c1 ? n

Fill in: this test's call for CC1(C)CCC(CN2CCN(c3ccc(C(=O)NS(=O)(=O)c4ccc(NCC5CCOCC5)c([N+](=O)[O-])c4)c(Oc4cnc5[nH]ccc5c4)c3)CC2)=C(c2ccc(Cl)cc2)C1 + CNC(=O)c1ccc(Nc2nc(OC3CCCC3)c3c(-c4ccc5nc(C)oc5c4)c[nH]c3n2)c(OC)c1 is ___ n

What is the recorded call for this compound in the test? CC(=O)O[C@H]1C(=O)[C@@]2(C)[C@H]([C@H](OC(=O)c3ccccc3)[C@]3(O)C[C@H](OC(=O)[C@H](O)[C@@H](NC(=O)c4ccccc4)c4ccccc4)C(C)=C1C3(C)C)[C@]1(OC(C)=O)CO[C@@H]1C[C@@H]2O + CNC(=O)c1ccc(Nc2nc(OC3CCCC3)c3c(-c4ccc5nc(C)oc5c4)c[nH]c3n2)c(OC)c1 n

# fetch the recorded call for C=C(F)C(=O)N1CCN(c2nc(OCC3CCCN3C)nc3c2CCN(c2cccc4cccc(Cl)c24)C3)CC1CC#N (stereo not drawn) + CNC(=O)c1ccc(Nc2nc(OC3CCCC3)c3c(-c4ccc5nc(C)oc5c4)c[nH]c3n2)c(OC)c1 here n

Name the outcome recorded for CC1(C)CCC(CN2CCN(c3ccc(C(=O)NS(=O)(=O)c4ccc(NCC5CCOCC5)c([N+](=O)[O-])c4)c(Oc4cnc5[nH]ccc5c4)c3)CC2)=C(c2ccc(Cl)cc2)C1 + CN1CCN(c2cc(C(=O)Nc3cc4cc(-c5cnn(C)c5)ccc4cn3)ccn2)CC1 in the assay. y

Tell me the assay call for CC(=O)O[C@H]1C(=O)[C@@]2(C)[C@H]([C@H](OC(=O)c3ccccc3)[C@]3(O)C[C@H](OC(=O)[C@H](O)[C@@H](NC(=O)c4ccccc4)c4ccccc4)C(C)=C1C3(C)C)[C@]1(OC(C)=O)CO[C@@H]1C[C@@H]2O + CN1CCN(c2cc(C(=O)Nc3cc4cc(-c5cnn(C)c5)ccc4cn3)ccn2)CC1 please. y

Tell me the assay call for C=CC(=O)N1CCN(c2nc(=O)n(-c3c(C)ccnc3C(C)C)c3nc(-c4c(O)cccc4F)c(F)cc23)C(C)C1 (stereo not drawn) + CN1CCN(c2cc(C(=O)Nc3cc4cc(-c5cnn(C)c5)ccc4cn3)ccn2)CC1 please. y

Each compound tested received a call. Report the one for COc1ccc([C@@H](O)c2cc(-c3ncnc4cc(N5CCOCC5)ccc34)c(F)cc2Cl)nn1 + CNC(=O)c1ccc(Nc2nc(OC3CCCC3)c3c(-c4ccc5nc(C)oc5c4)c[nH]c3n2)c(OC)c1 . n
